- SYSTEM UNDER TEST: Human SARS-CoV-2_Wuhan S (SmT1) (SARS-CoV-2 (Wuhan), UniProt P0DTC2 14-1208)
- ASSAY PROCEDURE: SPR, VHH over immobilised S
RESULT TYPE: Kd

{"BINDER": "NRCoV2-MRed22 VHH (VHH) VHH: EVQLVESGGGLVQPGGSLRLSCAASGSVFASNAMGWYRQAPGKQRELVATISSRGSTNYADSVKGRFTISRDNAKNTVYLQMNSLGPEDTAVYYCNAREFTGFDYWGQGTQVTVSS", "RESULT TYPE": "Kd", "RESULT": "0.51 nM"}

q: Request the reported Kd associated with NRCoV2-S2F3 VHH (VHH) VHH: EVQLVQSGGGLVQAGGSLRLSCATSVRILSVPAMGWYRQAPGKEREMVAVITSGGSTNYADSVKGRFTISRDNAKNTVYLQMNSLKLEDTAVYQCNLRDILSQPFWGQGTQVTVSS
a: 3.03 nM

q: Request the reported Kd associated with NRCoV2-MRed19 VHH (VHH) VHH: EVQLVESGGGLVQPGGSLRLSCAASTIIFKGQTMGWFRQAPGNERELVATMTTSGSANYADSVKGRFTISRDNEKTVTLQMNSLKPEDTALYYCYMHSVYYGIDYWGKGTQVTVSS
a: 9.07 nM

q: Request the reported Kd associated with NRCoV2-02 VHH (VHH) VHH: EVQLVESGGGLVQAGGSLRLSCAASGFTFSNYAMNWVRQAPGKGLEWVSGISGRGDDTRYADSVKGRFTISRDNAKNTLFLQMRSLRPEDTGVYRCTKGPDLYYFGSGYSDRGQGTQVTVSS
a: 0.62 nM

src = patent US20240270826A1
